- Assay Method Text: Viability qHTS for spleen associated tyrosine kinase inhibitor (SYKi) naive MV4-11 cells (AID 1963823); also: nearly all actives have a fitted effect of over 40% in size
- Measurement Conditions: MV4-11 AML viability, CellTiter-Glo luminescence, 72 h; series mostly up to 45 µM
Results filed as inconclusive are left out. Active and inactive are the calls of the source. Calls follow the shape of the dose curve; as a rule, active = well fitted cell-killing curve with a large enough effect; inconclusive = small, poorly fitted or top-dose-only effect, or effect the other way; inactive = no such curve, though single readings can be large or run the other way.
Readout Kind: viability (% of control)

Example entries begin here.
CCN[C@@H]1C[C@H](N)[C@@H](OC2OC(CN)=CCC2N)[C@H](O)[C@H]1O[C@H]1OC[C@](C)(O)[C@H](NC)[C@H]1O (some centres undefined) | 111% [at 0.588 µM] (inactive)
C[C@H]1[C@H](C)CC[C@]2(C(=O)OC3OC(CO)C(O)C(O)C3O)CC[C@]3(C(=O)O)C(=CCC4[C@@]5(C)CC[C@H](O[C@@H]6O[C@@H](C)[C@H](OC7OC(CO)C(O)C(O)C7O)[C@@H](O)[C@H]6O)C(C)(C)C5CC[C@]43C)[C@H]12 (some centres undefined) | 80.8% [at 9.25 µM] (inactive)
CN[C@@H](C)[C@H]1[C@H](O)C[C@@]2(C)[C@@H]3CC[C@H]4C(C)(C)[C@@H](NC)CC[C@@]45C[C@@]35CC[C@]12C | 79.2% [at 9.25 µM] (inactive)

Quick check: viability (% of control) of CC(=O)O[C@@H]1[C@H](O[C@@H]2OC[C@](O)(CO)[C@H]2O)[C@@H](O[C@@H]2O[C@@H](C)[C@H](O)[C@@H](O[C@@H]3O[C@H](CO)[C@@H](O)[C@H](O)[C@H]3O)[C@H]2O)[C@H](OC(=O)[C@]23CCC(C)(C)C[C@H]2C2=CCC4[C@@]5(C)C[C@H](O)[C@H](O[C@@H]6O[C@H](C(=O)O)[C@@H](O)[C@H](O)[C@H]6O)[C@@](C)(C(=O)O)C5CC[C@@]4(C)[C@]2(C)CC3)O[C@@H]1C (some centres undefined) ? 95.7% [at 9.25 µM] (inactive)

Origin of values: PubChem BioAssay (NCATS)
